- target_desc: T1, CLR-RAMP1 heterodimer with the L34A CLR mutant, Q16602
- T1 chain 1: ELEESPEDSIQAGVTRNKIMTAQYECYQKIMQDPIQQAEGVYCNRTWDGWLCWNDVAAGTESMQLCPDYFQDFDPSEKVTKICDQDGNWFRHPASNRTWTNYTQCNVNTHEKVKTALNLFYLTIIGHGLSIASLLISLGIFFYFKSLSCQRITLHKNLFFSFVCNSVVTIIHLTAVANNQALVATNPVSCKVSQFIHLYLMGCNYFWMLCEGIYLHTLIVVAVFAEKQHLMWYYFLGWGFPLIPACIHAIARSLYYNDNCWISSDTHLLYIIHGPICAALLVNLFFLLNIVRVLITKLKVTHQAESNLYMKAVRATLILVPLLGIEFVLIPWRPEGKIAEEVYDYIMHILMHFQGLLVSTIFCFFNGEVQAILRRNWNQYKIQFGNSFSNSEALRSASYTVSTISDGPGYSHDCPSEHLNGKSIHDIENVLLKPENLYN
- T1 chain 2: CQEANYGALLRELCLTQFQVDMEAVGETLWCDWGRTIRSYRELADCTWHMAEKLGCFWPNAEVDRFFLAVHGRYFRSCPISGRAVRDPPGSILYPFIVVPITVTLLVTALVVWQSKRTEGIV
- assay_procedure: radioligand binding; competition: increasing unlabeled peptide against specific [125I-Tyr]CGRP(8–37) binding on crude membranes of transiently transfected HEK293T-RAMP1 cells, same buffer as the saturation binding; Ki from IC50 by the method of Cheng and Prusoff
quantity_name: Ki

Short answer for ACDTATCVTHRLAGLLSRS (modifications not checked) [CGRP(1–19)] : Ki was > 10 µM

These measurements were taken from paper PMC1525162.
